- TARGET UNDER TEST: Sterol O-acyltransferase 1 (Rattus norvegicus)
- EXPERIMENT: In vitro percentage inhibition against acyl coenzyme A:cholesterol acyltransferase derived from rat adrenals
- Parameters: concentration or dose not given beside the values
- STUDY CONDITIONS: concentration not given here
I'd be grateful if you could share measured inhibition for these entries.
Numbers only, in %.

CCCCN(CCCC)C(=O)Nc1ccc(F)c(Cl)c1; 91
COc1cccc(NC(=O)N(Cc2ccccc2)Cc2ccccc2)c1; 87
CCCCN(CCCC)C(=O)Nc1cccc(SC)c1; 85
O=C(Nc1ccccc1Br)N(Cc1ccccc1)Cc1ccccc1; 94
CCCCN(Cc1ccccc1)C(=O)Nc1c(C)cc(C)cc1C; 76

Give inhibition for each listed item.
1. Cc1ccc(NC(=O)N(C(C)C)C(C)C)c(C)c1
2. O=C(Nc1cccc(Br)c1)N(Cc1ccccc1)Cc1ccccc1
3. CCCCN(CCCC)C(=O)Nc1cccc(Cl)c1C
4. CCCCN(CCCC)C(=O)Nc1ccc(Cl)cc1C
5. COc1cccc(NC(=O)NCc2ccccc2)c1

-1
92
80
88
34

Give inhibition for each listed item.
1. O=C(Nc1cccc([N+](=O)[O-])c1)N(Cc1ccccc1)Cc1ccccc1
2. CCCCN(CCCC)C(=O)Nc1cccc(Cl)c1

[81, 88]

----------
I'd be grateful if you could share measured LS for these entries.
- TARGET UNDER TEST: Sterol O-acyltransferase 1 (Rattus norvegicus)
- EXPERIMENT: Liver hypolipidemic activity in rats
- Type: functional
Numbers only, in %.

CCCCCCCCCCCCCCN(CCCCCCCCCCCCCC)C(=O)Nc1ccc(C)cc1C; 121
CCCCN(CCCC)C(=O)Nc1ccccc1; 100
Cc1ccc(NC(=O)N(CCC(C)C)CCC(C)C)c(C)c1; 65

Give LS for each listed item.
1. Cc1ccc(NC(=O)N(C2CCCC2)C2CCCC2)c(C)c1
2. CCCCN(Cc1ccccc1)C(=O)Nc1ccc(C)cc1
3. C#CCN(CC#C)C(=O)Nc1ccc(C)cc1C
4. Cc1ccc(NC(=O)N(CCCCC2CCCCC2)CCCCC2CCCCC2)c(C)c1

[113, 107, 93, 106]

----------
- TARGET UNDER TEST: Sterol O-acyltransferase 1 (Rattus norvegicus)
- Sequence (O70536 whole entry): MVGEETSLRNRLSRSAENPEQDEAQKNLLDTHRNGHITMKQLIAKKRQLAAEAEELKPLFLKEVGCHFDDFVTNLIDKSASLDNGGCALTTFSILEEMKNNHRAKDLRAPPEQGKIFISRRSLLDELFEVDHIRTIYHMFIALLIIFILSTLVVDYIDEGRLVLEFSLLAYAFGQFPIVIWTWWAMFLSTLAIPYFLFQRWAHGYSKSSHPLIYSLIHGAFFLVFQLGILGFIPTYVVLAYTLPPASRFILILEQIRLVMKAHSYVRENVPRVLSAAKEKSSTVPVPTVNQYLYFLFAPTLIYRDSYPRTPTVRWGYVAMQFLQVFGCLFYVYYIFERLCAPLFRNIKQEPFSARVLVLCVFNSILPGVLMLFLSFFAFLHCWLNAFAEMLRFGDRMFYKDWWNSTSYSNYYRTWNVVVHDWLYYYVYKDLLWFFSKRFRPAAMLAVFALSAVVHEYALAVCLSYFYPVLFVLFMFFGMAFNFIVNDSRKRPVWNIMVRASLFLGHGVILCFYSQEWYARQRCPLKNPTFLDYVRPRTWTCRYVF
- EXPERIMENT: In vitro inhibitory concentration against acyl coenzyme A:cholesterol acyltransferase derived from rat adrenals
I'd be grateful if you could share measured IC50 for these entries.
Give bare numbers, in µM.

Some solved cases for reference:
O=C(Nc1cccc(Br)c1)N(Cc1ccccc1)Cc1ccccc1; 5.77
CCCCc1ccc(NC(=O)N(CCCC)CCCC)cc1; 9.13
CCOc1ccc(NC(=O)N(Cc2ccccc2)Cc2ccccc2)cc1; 9.63
CCCCN(CCCC)C(=O)Nc1cccc(C)c1; 4.76
CC(C)(C)CCN(Cc1cccs1)C(=O)Nc1ccc(F)cc1F; 6.75
CCCCN(CCCC)C(=O)Nc1cccc(Cl)c1; 9.65
CCCCN(CCCC)C(=O)Nc1cccc(Cl)c1C; 4.08
O=C(Nc1ccc(Oc2ccccc2)cc1)N(Cc1ccccc1)Cc1ccccc1; 3.23

Give IC50 for each listed item.
1. CCCCN(CCCC)C(=O)Nc1cc(Cl)cc(Cl)c1
2. CCCCN(CCCC)C(=O)Nc1cc(C)cc(C)c1
3. CCCCN(CCCC)C(=O)Nc1ccc(C)c(Cl)c1
4. CC(C)(C)CCN(Cc1cccs1)C(=O)Nc1c(Cl)cc(Cl)cc1Cl
5. CCCCN(CCCC)C(=O)Nc1ccc(Cl)c(C(F)(F)F)c1

1: 4.38; 2: 3.55; 3: 6.43; 4: 0.977; 5: 10.5

Give recorded IC50. `Cc1c(Cl)cccc1NC(=O)N(CCC(C)(C)C)Cc1cccs1`
6.77

----------
I'd be grateful if you could share measured LS for these entries.
- TARGET UNDER TEST: Sterol O-acyltransferase 1 (Rattus norvegicus)
- EXPERIMENT: Liver hypolipidemic activity in rats
- Format: functional
Answer with the number, then the unit.

Some solved cases for reference:
O=C(Nc1cccc(Br)c1)N(Cc1ccccc1)Cc1ccccc1; 86%
CCCCN(Cc1ccc2c(c1)OCO2)C(=O)Nc1ccc(C)cc1C; 46%
CCCCN(Cc1ccccc1)C(=O)Nc1c(C)cccc1C; 91%
CCCCN(CCCC)C(=O)Nc1cc(Cl)cc(Cl)c1; 93%
CCCCN(Cc1ccccc1)C(=O)Nc1ccc(C)cc1C; 75%

Give LS for each listed item.
1. Cc1ccc(NC(=O)N(Cc2ccccc2)Cc2ccccc2)cc1Cl
2. CCCCCCCCCCCCCCCCCCN(CCCCCCCCCCCCCCCCCC)C(=O)Nc1ccc(C)cc1C
3. CCCCN(Cc1ccccc1)C(=O)Nc1c(C)cc(C)cc1C

1. 97%
2. 123%
3. 37%

Give LS for each listed item.
1. Cc1cc(Cl)ccc1NC(=O)N(Cc1ccccc1)Cc1ccccc1
2. CCCCCCCN(Cc1cccs1)C(=O)Nc1cc(C)c(C)cc1C
3. CCCCN(Cc1ccccc1)C(=O)Nc1cc(Cl)cc(Cl)c1
4. CCCCN(CCCC)C(=O)Nc1cccc(Cl)c1C

26%
25%
107%
93%

Give LS for each listed item.
1. CCCCN(CCCC)C(=O)Nc1ccccc1C
2. Cc1ccc(Cl)cc1NC(=O)N(Cc1ccccc1)Cc1ccccc1
3. CCCCN(C(=O)Nc1ccc(C)cc1C)c1ccccc1
4. CCCCN(Cc1ccccc1)C(=O)Nc1ccc(Cl)cc1C
5. CCCCN(CCCC)C(=O)Nc1cc(C)cc(C)c1
6. O=C(NCc1ccccc1)Nc1ccccc1Cl
7. O=C(Nc1ccc(Cl)cc1)N(Cc1ccccc1)c1ccccc1

111%
66%
107%
62%
76%
96%
102%

----------
I'd be grateful if you could share measured LS for these entries.
- TARGET UNDER TEST: Sterol O-acyltransferase 1 (Rattus norvegicus)
- EXPERIMENT: Liver hypolipidemic activity in rats
- Format: functional
Answer with the number, then the unit.

Some solved cases for reference:
Cc1ccc(NC(=O)N(Cc2ccccc2)Cc2ccccc2)c(C)c1; 31%
Cc1ccc(NC(=O)N(CCC(C)CC(C)(C)C)CCC(C)CC(C)(C)C)c(C)c1 (stereo not drawn); 70%

Query compound follows.
Give the observed LS of `Cc1cccc(NC(=O)N(Cc2ccccc2)Cc2ccccc2)c1C` for Sterol O-acyltransferase 1 (Rattus norvegicus).
51%

----------
- TARGET UNDER TEST: Sterol O-acyltransferase 1 (Rattus norvegicus)
- Sequence (whole entry): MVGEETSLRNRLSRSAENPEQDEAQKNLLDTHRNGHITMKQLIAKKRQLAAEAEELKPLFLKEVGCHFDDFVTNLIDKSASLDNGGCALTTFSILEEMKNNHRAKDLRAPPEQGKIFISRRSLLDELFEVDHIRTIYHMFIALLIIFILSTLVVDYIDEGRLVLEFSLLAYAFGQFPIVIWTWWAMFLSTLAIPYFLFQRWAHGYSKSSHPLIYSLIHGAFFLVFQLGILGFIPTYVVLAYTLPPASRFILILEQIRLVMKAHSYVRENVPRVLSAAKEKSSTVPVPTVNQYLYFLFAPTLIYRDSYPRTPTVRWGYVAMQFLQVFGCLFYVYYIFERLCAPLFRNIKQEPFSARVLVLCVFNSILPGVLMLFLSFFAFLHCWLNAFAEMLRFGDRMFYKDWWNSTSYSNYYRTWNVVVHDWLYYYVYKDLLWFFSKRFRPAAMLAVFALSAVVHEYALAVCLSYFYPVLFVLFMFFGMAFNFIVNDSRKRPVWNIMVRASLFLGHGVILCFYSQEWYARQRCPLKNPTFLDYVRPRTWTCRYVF
- EXPERIMENT: In vitro percentage inhibition against Acyl coenzyme A:cholesterol acyltransferase derived from rat adrenals
- Parameters: concentration or dose not given beside the values
- STUDY CONDITIONS: concentration not given here
EXPERIMENTAL READOUT: inhibition (%)
Numbers only, in %.

Cc1ccc(C)c(NC(=O)N(Cc2ccccc2)Cc2ccccc2)c1; 89
CCCCCCCCCCCCCCN(CCCCCCCCCCCCCC)C(=O)Nc1ccc(C)cc1C; -7
O=C(Nc1ccc(Cl)cc1Cl)N(Cc1ccccc1)Cc1ccccc1; 83
O=C(Nc1ccc(Cl)c(C(F)(F)F)c1)N(Cc1ccccc1)Cc1ccccc1; 92

Give inhibition for each listed item.
1. CCc1cccc(CC)c1NC(=O)N(Cc1ccccc1)Cc1ccccc1
2. CCCCCCCN(Cc1ccco1)C(=O)Nc1c(Cl)cc(Cl)cc1Cl
3. Cc1cccc(NC(=O)N(Cc2ccccc2)Cc2ccccc2)c1C
4. CCCCN(CCCC)C(=O)Nc1cccc(Br)c1
5. CCN(C(=O)Nc1ccccc1C)c1ccccc1
6. Cc1ccc(NC(=O)N(Cc2ccccc2)Cc2ccccc2)cc1Cl

1: 72; 2: 96; 3: 85; 4: 86; 5: 9; 6: 94

Give inhibition for each listed item.
1. Cc1ccc(NC(=O)N(CCC(C)CC(C)(C)C)CCC(C)CC(C)(C)C)c(C)c1 (centres undefined)
2. CCCCCCCCN(CCCCCCCC)C(=O)Nc1ccc(C)cc1C
3. Cc1ccc(NC(=O)N(Cc2ccccc2)Cc2ccccc2)cc1C
4. CCCCC(CC)CN(CC(CC)CCCC)C(=O)Nc1ccc(C)cc1C (centres undefined)
5. O=C(Nc1c(Cl)cccc1Cl)N(Cc1ccccc1)Cc1ccccc1
6. CCCCN(CCCC)C(=O)Nc1cccc(C(F)(F)F)c1
7. CCCCN(CCCC)C(=O)Nc1ccc(C)c(C)c1
8. CCc1cccc(C)c1NC(=O)N(Cc1ccccc1)Cc1ccccc1

1. 90
2. 89
3. 72
4. 86
5. 89
6. 75
7. 49
8. 74
